Reference source: ChEMBL document CHEMBL1130018

Listing of entries alongside the reported Response.
# Test system: GABA-A receptor; anion channel (Rattus norvegicus) (UniProt O09028+P15431+P18506+P18508+P19969+P20236+P23574+P23576+P28471+P28473+P30191+P62813+P63079+P63138+Q91ZM7+Q9ES14)
# Procedure summary: Induced potentiation of 3 uM GABA-mediated chloride currents at 1 mM in the presence of 3 mM alpha-IMGBL (picrotoxin antagonist)
# Format: functional
Measure: Response (%)

>>> quantitative_readout("CCC1(Cc2ccccc2)CCCNC1=O (centres undefined)")
93
>>> quantitative_readout("CCC1(CC)CCCCNC1=O")
105
>>> quantitative_readout("CCC1(CC)CCCNC1=O")
102
>>> quantitative_readout("CCC1(Cc2ccccc2)CCCCNC1=O (centres undefined)")
107

====

# Procedure summary: Protective Index (PI) determined as the ratio of toxic dose (TD50) and effective dose (ED50 (PTZ))
# Format: ADME
# Condition context: mouse; read-out: PI
Friendly reminder: selectivity ratio below 2 is met, at or above is not met.

>>> label_value("CCC1(c2ccccc2)C(=O)NC(=O)NC1=O [PHENOBARBITAL]")
"not met"
>>> label_value("CCC1CCCCNC1=O (stereo not drawn)")
"met"
>>> label_value("O=C1CCCCCN1 [CAPROLACTAM]")
"met"
>>> label_value("CCC1(C)CCCNC1=O (stereo not drawn)")
"not met"
>>> label_value("CCC1(CC)CCCNC1=O")
"not met"
>>> label_value("CC1(Cc2ccccc2)CCCNC1=O (stereo not drawn)")
"not met"
>>> label_value("CCC1(CC)CCCCNC1=O")
"met"
>>> label_value("CCC1(Cc2ccccc2)CCCNC1=O (stereo not drawn)")
"met"
>>> label_value("O=C1NCCCC1Cc1ccccc1 (stereo not drawn)")
"not met"
>>> label_value("CCC1(C)CC(=O)NC1=O (stereo not drawn) [ETHOSUXIMIDE]")
"not met"
>>> label_value("CCC1(CC)CCNC1=O")
"not met"

====

Listing of entries alongside the reported IC50.
# Test system: GABA-A receptor; anion channel
# Procedure summary: Ability to displace radioligand [35S]TBPS from Gamma-aminobutyric acid A receptor binding site in rat brain membranes
Measure: IC50 (µM)

>>> quantitative_readout("CCC1CCCNC1=O (configuration not stated)")
8780
>>> quantitative_readout("CCC1(CC)CCCCNC1=O")
380
>>> quantitative_readout("CCC1(C)CCCNC1=O (configuration not stated)")
4410
>>> quantitative_readout("CCC1(Cc2ccccc2)CCCCNC1=O (configuration not stated)")
90
>>> quantitative_readout("CC1CCCNC1=O (configuration not stated)")
27700
>>> quantitative_readout("O=C1CCCCN1")
197000
>>> quantitative_readout("CCC1CCCCNC1=O (configuration not stated)")
3200
>>> quantitative_readout("O=C1NCCCC1Cc1ccccc1 (configuration not stated)")
1440
>>> quantitative_readout("CC1(Cc2ccccc2)CCCNC1=O (configuration not stated)")
730
>>> quantitative_readout("CCC1(CC)CCCNC1=O")
1310
>>> quantitative_readout("O=C1CCCCCN1")
17400
>>> quantitative_readout("CCC1(Cc2ccccc2)CCCNC1=O (configuration not stated)")
270

====

# Procedure summary: Protective Index (PI) determined as the ratio of toxic dose (TD50) and effective dose (ED50 (MES))
# Format: ADME
# Condition context: mouse; read-out: PI
Listing of entries alongside the reported selectivity ratio.
Measure: selectivity ratio

>>> quantitative_readout("O=C1NCCC1Cc1ccccc1 (stereo not drawn)")
3.51
>>> quantitative_readout("CCC1(Cc2ccccc2)CCCNC1=O (stereo not drawn)")
1.47
>>> quantitative_readout("CCC1(CC)CCCNC1=O")
3.06
>>> quantitative_readout("O=C1NCCCC1Cc1ccccc1 (stereo not drawn)")
7.05
>>> quantitative_readout("CC1(Cc2ccccc2)CCCNC1=O (stereo not drawn)")
2.5

====

# Species: Mus musculus
# Procedure summary: Anticonvulsant activity expressed as dose at which 50% of the mice were protected from tonic hindlimb seizures induced by maximal electroshock (MES)
# Type: functional
Measure: ED50 (mg/kg)

>>> quantitative_readout("CC1(Cc2ccccc2)CCCNC1=O (centres undefined)")
50
>>> quantitative_readout("CCCC(CCC)C(=O)O [VALPROIC ACID]")
206
>>> quantitative_readout("CCC1(Cc2ccccc2)CCCNC1=O (centres undefined)")
70
>>> quantitative_readout("CCC1CCCCNC1=O (centres undefined)")
249
>>> quantitative_readout("CCC1(CC)CCCCNC1=O")
178
>>> quantitative_readout("O=C1NCCCC1Cc1ccccc1 (centres undefined)")
41
>>> quantitative_readout("CCC1(C)CCCNC1=O (centres undefined)")
199
>>> quantitative_readout("CCC1(c2ccccc2)C(=O)NC(=O)NC1=O [PHENOBARBITAL]")
17
>>> quantitative_readout("CCC1CCCNC1=O (centres undefined)")
550
>>> quantitative_readout("CCC1(CC)CCCNC1=O")
54

====

Listing of entries alongside the reported selectivity ratio.
# Procedure summary: Protective Index (PI) determined as the ratio of toxic dose (TD50) and effective dose (ED50 (MES))
# Format: ADME
# Condition context: mouse; read-out: PI
Measure: selectivity ratio

>>> result("CCC1CCCCNC1=O (stereo not given)")
0.58
>>> result("CCC1(CC)CCNC1=O")
1.49
>>> result("CCC1(C)CCCNC1=O (stereo not given)")
1.9
>>> result("CCC1(CC)CCCCNC1=O")
0.74
>>> result("CCC1(c2ccccc2)C(=O)NC(=O)NC1=O")
5.18

====

# Procedure summary: Neurotoxicity was evaluated by a rotarod test
# Type: toxicity
# Condition context: mouse
Measure: TD50 (mg/kg)

>>> quantitative_readout("O=C1NCCCC1Cc1ccccc1 (centres undefined)")
289
>>> quantitative_readout("CCC1(C)CC(=O)NC1=O (centres undefined) [ETHOSUXIMIDE]")
378
>>> quantitative_readout("CCC1(c2ccccc2)C(=O)NC(=O)NC1=O [PHENOBARBITAL]")
88
>>> quantitative_readout("CCC1CCCCNC1=O (centres undefined)")
145
>>> quantitative_readout("CCC1(Cc2ccccc2)CCCNC1=O (centres undefined)")
103
>>> quantitative_readout("CCC1(CC)CCCCNC1=O")
131
>>> quantitative_readout("CCC1(CC)CCCNC1=O")
165
>>> quantitative_readout("CC1(Cc2ccccc2)CCCNC1=O (centres undefined)")
125
>>> quantitative_readout("CCC1(C)CCCNC1=O (centres undefined)")
378

====

# Procedure summary: Protective Index (PI) determined as the ratio of toxic dose (TD50) and effective dose (ED50 (MES))
# Format: ADME
# Condition context: mouse; read-out: PI
Listing of entries alongside the reported selectivity ratio.
Measure: selectivity ratio

>>> result("CCC1(C)CC(=O)NC1=O (stereo not drawn) [ETHOSUXIMIDE]")
"< 0.67"
>>> result("CCC1CCCNC1=O (stereo not drawn)")
"> 0.59"
>>> result("O=C1CCCCCN1")
"< 1"

====

# Organism: Mus musculus
# Procedure summary: Anticonvulsant activity expressed as dose at which 50% of the mice were protected from tonic hindlimb seizures induced by maximal electroshock (MES)
# Assay type: functional
Measure: ED50

>>> result("CCC1(C)CC(=O)NC1=O (centres undefined) [ETHOSUXIMIDE]")
"> 562 mg/kg"
>>> result("CCC1(Cc2ccccc2)CCCCNC1=O (centres undefined)")
"> 100 mg/kg"
>>> result("O=C1CCCCCN1")
"> 300 mg/kg"
>>> result("O=C1CCCCN1")
"> 600 mg/kg"

====

# Procedure summary: Neurotoxicity was evaluated by a rotarod test
# Format: toxicity
# Condition context: mouse
Measure: TD50

>>> result("CC1CCCNC1=O (stereo not given)")
"> 600 mg/kg"
>>> result("O=C1CCCCCN1 [CAPROLACTAM]")
"< 300 mg/kg"
>>> result("CCC1CCCNC1=O (stereo not given)")
"> 325 mg/kg"
>>> result("CCC1(Cc2ccccc2)CCCCNC1=O (stereo not given)")
"> 100 mg/kg"
>>> result("O=C1CCCCN1")
"> 600 mg/kg"
